# System: Mycobacterium tuberculosis
# METHOD_NOTES: Antimycobacterial activity against Mycobacterium tuberculosis H37Rv ATCC 27294 incubated for 7 days by microplate alamar blue assay
# Format: functional
# CONDITION_LABEL: H37Rv ATCC 27294, 168 h, time 7 day
Below, each entry is listed alongside its reported MIC.

Consider the following illustrative entries.
INSERT INTO measurements (molecule, metric, result) VALUES
  ('Cc1ccc(CNN2CCN(c3nc(=O)c4cc(C(F)(F)F)cc([N+](=O)[O-])c4s3)CC2)cc1', 'MIC', '< 0.016 µg/mL'),
  ('O=c1nc(NN2CCN(Cc3ccncc3)CC2)sc2c([N+](=O)[O-])cc(C(F)(F)F)cc12', 'MIC', '> 1 µg/mL'),
  ('O=c1nc(N2CCN(NCc3ccc(Br)cc3)CC2)sc2c([N+](=O)[O-])cc(C(F)(F)F)cc12', 'MIC', '< 0.016 µg/mL'),
  ('CO[C@H]1/C=C/O[C@@]2(C)Oc3c(C)c(O)c4c(O)c(c(/C=N/N5CCN(C)CC5)c(O)c4c3C2=O)NC(=O)/C(C)=C\C=C\[C@H](C)[C@H](O)[C@@H](C)[C@@H](O)[C@@H](C)[C@H](OC(C)=O)[C@@H]1C [RIFAMPIN]', 'MIC', '0.0382 µg/mL');

Request - read-out MIC | tested on Mycobacterium tuberculosis | molecule CC(C)CN(CC(C)C)N1CCN(c2nc(=O)c3cc(C(F)(F)F)cc([N+](=O)[O-])c3s2)CC1 < 0.016 µg/mL

Request - read-out MIC | tested on Mycobacterium tuberculosis | molecule O=c1nc(N2CCN(/N=C/c3ccc(OC(F)(F)F)cc3)CC2)sc2c([N+](=O)[O-])cc(C(F)(F)F)cc12 < 0.016 µg/mL

Request - read-out MIC | tested on Mycobacterium tuberculosis | molecule O=c1nc(NN2CCN(CC3CCCCC3)CC2)sc2c([N+](=O)[O-])cc(C(F)(F)F)cc12 > 1 µg/mL

Request - read-out MIC | tested on Mycobacterium tuberculosis | molecule O=c1nc(N2CCN(NC3CCCCC3)CC2)sc2c([N+](=O)[O-])cc(C(F)(F)F)cc12 < 0.016 µg/mL

Request - read-out MIC | tested on Mycobacterium tuberculosis | molecule CON=C1CCC(N(C)N2CCN(c3nc(=O)c4cc(C(F)(F)F)cc([N+](=O)[O-])c4s3)CC2)CC1 (stereo unspecified) < 0.016 µg/mL

Request - read-out MIC | tested on Mycobacterium tuberculosis | molecule O=c1nc(N2CCN(NCCC3CCCCC3)CC2)sc2c([N+](=O)[O-])cc(C(F)(F)F)cc12 < 0.016 µg/mL

Request - read-out MIC | tested on Mycobacterium tuberculosis | molecule O=c1nc(N2CCN(NS(=O)(=O)C3CCCCC3)CC2)sc2c([N+](=O)[O-])cc(C(F)(F)F)cc12 > 1 µg/mL

Request - read-out MIC | tested on Mycobacterium tuberculosis | molecule O=c1nc(N2CCN(N(CC3CCCC3)CC3CCCC3)CC2)sc2c([N+](=O)[O-])cc(C(F)(F)F)cc12 0.0803 µg/mL

Request - read-out MIC | tested on Mycobacterium tuberculosis | molecule O=c1nc(N2CCN(NCc3ccc(O)cc3)CC2)sc2c([N+](=O)[O-])cc(C(F)(F)F)cc12 0.9 µg/mL

Request - read-out MIC | tested on Mycobacterium tuberculosis | molecule Cc1cccc(F)c1CNN1CCN(c2nc(=O)c3cc(C(F)(F)F)cc([N+](=O)[O-])c3s2)CC1 < 0.016 µg/mL

Request - read-out MIC | tested on Mycobacterium tuberculosis | molecule O=c1nc(N2CCN(NCc3cccc(C(F)(F)F)c3)CC2)sc2c([N+](=O)[O-])cc(C(F)(F)F)cc12 < 0.016 µg/mL

Request - read-out MIC | tested on Mycobacterium tuberculosis | molecule O=c1nc(N2CCN(NCc3ccc(C(F)(F)F)cc3)CC2)sc2c([N+](=O)[O-])cc(C(F)(F)F)cc12 < 0.016 µg/mL

* * *

# METHOD_NOTES: AUC (0 to infinity) in ICR mouse at 25 mg/kg, po measured upto 24 hrs by HPLC analysis
# Type: ADME, organism-based
# Set-up: route oral, dose 25 mg/kg, time <=24
# CONDITION_LABEL: in vivo
METRIC: AUC(0-inf) (ng·h/mL)
Provide only the numeric value, understood in ng·h/mL.

Consider the following illustrative entries.
INSERT INTO results (molecule, number) VALUES
  ('CN(c1ccc(OC(F)(F)F)cc1)N1CCN(c2nc(=O)c3cc(C(F)(F)F)cc([N+](=O)[O-])c3s2)CC1', 4700),
  ('O=c1nc(N2CCN(NC3CCCCC3)CC2)sc2c([N+](=O)[O-])cc(C(F)(F)F)cc12', 4430),
  ('CC(c1ccc(OC(F)(F)F)cc1)N(C)N1CCN(c2nc(=O)c3cc(C(F)(F)F)cc([N+](=O)[O-])c3s2)CC1 (centres undefined)', 2870);

Given the entry CON=C1CCC(N(C)N2CCN(c3nc(=O)c4cc(C(F)(F)F)cc([N+](=O)[O-])c4s3)CC2)CC1 (centres undefined) , report its measured AUC(0-inf). 15800

* * *

# Tested on: Mycobacterium tuberculosis
# METHOD_NOTES: Antimycobacterial activity against Mycobacterium tuberculosis H37Rv ATCC 27294 incubated for 7 days by microplate alamar blue assay
# Format: functional
# CONDITION_LABEL: H37Rv ATCC 27294, 168 h, time 7 day
Below, each entry is listed alongside its reported MIC.

Consider the following illustrative entries.
INSERT INTO measurements (smiles_record, metric, result) VALUES
  ('O=c1nc(N2CCN(Nc3ccc(C(F)(F)F)cc3)CC2)sc2c([N+](=O)[O-])cc(C(F)(F)F)cc12', 'MIC', '< 0.016 µg/mL'),
  ('O=c1nc(N2CCN(NCc3ccc(F)cc3)CC2)sc2c([N+](=O)[O-])cc(C(F)(F)F)cc12', 'MIC', '< 0.016 µg/mL');

Given the entry O=C(C1CCCCC1)N1CCN(Nc2nc(=O)c3cc(C(F)(F)F)cc([N+](=O)[O-])c3s2)CC1 , report its measured MIC. > 1 µg/mL

* * *

Below, each entry is listed alongside its reported MIC.
# System: Mycobacterium tuberculosis
# METHOD_NOTES: Antimycobacterial activity against Mycobacterium tuberculosis H37Rv ATCC 27294 incubated for 7 days by microplate alamar blue assay
# Format: functional
# CONDITION_LABEL: H37Rv ATCC 27294, 168 h, time 7 day

INSERT INTO measurements (compound, result) VALUES
  ('CON=C1CCC(NN2CCN(c3nc(=O)c4cc(C(F)(F)F)cc([N+](=O)[O-])c4s3)CC2)CC1 (stereo not drawn)', '0.028 µg/mL');

Request - read-out MIC | tested on Mycobacterium tuberculosis | compound C/C(=N\N1CCN(c2nc(=O)c3cc(C(F)(F)F)cc([N+](=O)[O-])c3s2)CC1)c1ccc(OC(F)(F)F)cc1 < 0.016 µg/mL

Request - read-out MIC | tested on Mycobacterium tuberculosis | compound CN(c1ccc(OC(F)(F)F)cc1)N1CCN(c2nc(=O)c3cc(C(F)(F)F)cc([N+](=O)[O-])c3s2)CC1 < 0.016 µg/mL

* * *

Below, each entry is listed alongside its reported MIC.
# Test system: Mycobacterium tuberculosis
# METHOD_NOTES: Antimycobacterial activity against Mycobacterium tuberculosis H37Rv ATCC 27294 incubated for 7 days by microplate alamar blue assay
# Type: functional
# CONDITION_LABEL: H37Rv ATCC 27294, 168 h, time 7 day

Given the entry O=c1nc(N2CCN(NCc3cc(F)cc(F)c3)CC2)sc2c([N+](=O)[O-])cc(C(F)(F)F)cc12 , report its measured MIC. < 0.016 µg/mL

Given the entry CN(CC1CCCCC1)N1CCN(c2nc(=O)c3cc(C(F)(F)F)cc([N+](=O)[O-])c3s2)CC1 , report its measured MIC. < 0.016 µg/mL

Given the entry O=c1nc(N2CCN(NCC3CCCC3)CC2)sc2c([N+](=O)[O-])cc(C(F)(F)F)cc12 , report its measured MIC. < 0.016 µg/mL
